Settings: buffer; pH 7.4; 200.0 µM
I'd be grateful if you could share measured solubility kinetic for these entries.
Report the figure in µg/mL without appending any unit label.

What measured solubility kinetic goes with CSc1ncccc1C(=O)OCC(=O)Nc1nc(C)c(Cl)cc1Cl ?
10

What measured solubility kinetic goes with Cc1cn(CCOc2ccc(Cl)cc2)c(=O)[nH]c1=O ?
36.8

What measured solubility kinetic goes with COCCCn1c(=O)c2ccccc2n(Cc2cccc(C)c2)c1=O ?
42.6

What measured solubility kinetic goes with CC1CCN(C(=O)CC(NC(N)=O)c2ccccc2Cl)CC1 (stereo unspecified) ?
44.2

* * *

Details: buffer; pH 7.4; 200.0 µM
metric: solubility kinetic

What measured solubility kinetic goes with COc1ccccc1CNS(=O)(=O)c1cccs1 ?
> 42.5 µg/mL

What measured solubility kinetic goes with CC1CN(S(=O)(=O)c2ccccc2)CN1C(=O)N1CCOCC1 (stereo not given) ?
> 50.9 µg/mL

What measured solubility kinetic goes with O=C(c1ccccc1F)N1CCCC(C(=O)N2CCc3ccccc3C2)C1 (stereo not given) ?
51.3 µg/mL

What measured solubility kinetic goes with CN1CCN(CC(=O)Nc2ccccc2Oc2ccccc2)CC1 ?
> 48.8 µg/mL

What measured solubility kinetic goes with N#C/C(=C/c1cc[nH]c1)C(N)=S ?
> 26.6 µg/mL

What measured solubility kinetic goes with Cc1nnc(NC(=O)c2ccc3nccnc3c2)s1 ?
> 40.7 µg/mL

What measured solubility kinetic goes with CC(OC(=O)C1=Cc2ccccc2OC1)C(=O)NCc1ccco1 (stereo not given) ?
7.1 µg/mL

What measured solubility kinetic goes with CCOc1ccc(CN(C)CC(=O)Nc2cccc(C)c2)cc1OC ?
> 51.4 µg/mL

What measured solubility kinetic goes with O=C(CCCN1C(=O)/C(=C/c2ccccc2OC(F)F)SC1=S)Nc1cccnc1 ?
4.5 µg/mL

What measured solubility kinetic goes with c1cnc(N2CCN(c3ccc4ccccc4n3)CC2)nc1 ?
1.3 µg/mL

What measured solubility kinetic goes with Cc1cc(OCCCn2ccnc2)ccc1[N+](=O)[O-].O=C(O)C(=O)O ?
36.8 µg/mL

What measured solubility kinetic goes with CCn1c(COc2ccc(C)cc2)nc2ccccc21 ?
2.2 µg/mL

What measured solubility kinetic goes with O=C(Nc1nccs1)c1ccc(-c2ccccc2[N+](=O)[O-])o1 ?
5.6 µg/mL

What measured solubility kinetic goes with Cl.OC1(c2ccccc2)CCN(Cc2ccccc2)CC1 ?
37.6 µg/mL

What measured solubility kinetic goes with CSc1nc(SCCN(C)C)c2c3c(sc2n1)COC(C)(C)C3 ?
37.4 µg/mL

What measured solubility kinetic goes with O=C(Nc1c(-c2ccccc2)nc2ccccn12)c1ccccc1 ?
38.7 µg/mL

What measured solubility kinetic goes with Cc1ccccc1C(=O)OCC(=O)N(C)c1ccccc1 ?
> 42.5 µg/mL

What measured solubility kinetic goes with CC(=O)c1sc(-c2ccc(F)cc2)cc1NS(=O)(=O)c1ccccc1 ?
0.9 µg/mL

What measured solubility kinetic goes with CCCCc1nc2ccc(S(=O)(=O)O)cc2[nH]1 ?
31.4 µg/mL

What measured solubility kinetic goes with O=C(CSc1nc2ccccc2o1)Nc1nccs1 ?
2 µg/mL

What measured solubility kinetic goes with O=C(Cc1cccs1)Nc1nc(-c2cccnc2)cs1 ?
5.3 µg/mL

What measured solubility kinetic goes with CC(C)n1cc(C(N)=S)c(=O)n(Cc2ccccc2)c1=O ?
9.1 µg/mL

What measured solubility kinetic goes with CC(C)C1Nc2ccc(C(=O)O)cc2C2C=CCC21 (stereo not given) ?
> 38.6 µg/mL

What measured solubility kinetic goes with CCOC(=O)N1CCN(S(=O)(=O)c2ccc([N+](=O)[O-])cc2)CC1 ?
36.9 µg/mL

What measured solubility kinetic goes with Cl.NCCSC1CC(=O)N(Cc2ccc(F)cc2)C1=O (stereo not given) ?
37.9 µg/mL

What measured solubility kinetic goes with COc1ccc(N(CCC#N)C(=O)/C(C#N)=C\c2cccs2)cc1 ?
> 50.6 µg/mL

What measured solubility kinetic goes with CC(Sc1ccc([N+](=O)[O-])cn1)C(=O)Nc1nccs1 (stereo not given) ?
5 µg/mL

What measured solubility kinetic goes with CCCCc1nc(Cl)c(C#N)c2c1CCC2 ?
3.4 µg/mL

What measured solubility kinetic goes with CCSc1ncc(Cl)c(C(=O)Nc2ccccc2F)n1 ?
0.5 µg/mL

What measured solubility kinetic goes with COc1cc(CNC(C)C23CC4CC(CC(C4)C2)C3)cc(OC)c1OC.Cl (stereo not given) ?
> 59.4 µg/mL

What measured solubility kinetic goes with Fc1ccc(-c2cnc3n2CCCCC3)cc1 ?
> 34.5 µg/mL

What measured solubility kinetic goes with O=C(O)CN1C(=O)NC2(CCCc3ccccc32)C1=O (stereo not given) ?
> 41.1 µg/mL

What measured solubility kinetic goes with CSc1ncccc1C(=O)OCC(=O)N(C)C ?
> 38.1 µg/mL

What measured solubility kinetic goes with S=C(Cc1ccc(-c2ccccc2)cc1)N1CCOCC1 ?
0.7 µg/mL

What measured solubility kinetic goes with Cc1cccc(C)c1NC(=O)CN(C)C(=O)C1CCCCC1 ?
> 45.4 µg/mL

What measured solubility kinetic goes with O=Cc1c(NCCc2ccc(F)cc2)c2ccccc2[nH]c1=O ?
34.8 µg/mL

What measured solubility kinetic goes with CC1CN(S(=O)(=O)c2ccc(C(=O)N(C)C3CCCCC3)cc2)CC(C)O1 (stereo not given) ?
> 59.2 µg/mL

What measured solubility kinetic goes with N#Cc1c(N2CCOCC2)nsc1-c1ccccc1 ?
1.6 µg/mL

What measured solubility kinetic goes with CCN1c2ccccc2S(=O)(=O)c2ccccc21 ?
15.6 µg/mL

What measured solubility kinetic goes with CCN(CC(=O)NCc1cccs1)C(=O)c1ccc(Cl)c(Cl)c1 ?
> 55.7 µg/mL

What measured solubility kinetic goes with COCCN(CCOC)S(=O)(=O)c1ccc(Cl)nc1 ?
45.3 µg/mL

What measured solubility kinetic goes with COc1ccccc1N1C(=O)C=C(Sc2nc(C)cc(C)n2)C1=O ?
9.1 µg/mL

What measured solubility kinetic goes with COCCCNc1nc(N)c([N+](=O)[O-])c(NCC2CCCO2)n1 (stereo not given) ?
> 49 µg/mL

What measured solubility kinetic goes with Cn1c(/C=N/O)nc2ccccc21 ?
> 26.3 µg/mL

What measured solubility kinetic goes with CC1CC(C)CN(C(=O)Cn2cc(C=O)c3ccccc32)C1 (stereo not given) ?
> 44.8 µg/mL

What measured solubility kinetic goes with Cc1ccc(-c2c(NC(=O)C(C)C)n(C)c3ccccc3c2=O)cc1 ?
29.4 µg/mL

What measured solubility kinetic goes with O=S(=O)(NCCN1CCCC1)c1ccc(Br)cc1 ?
46.9 µg/mL

What measured solubility kinetic goes with Fc1cccc2sc(N3CCCC3)nc12 ?
17.4 µg/mL

What measured solubility kinetic goes with COc1cc(C(=O)N2CCCN(C)CC2)cc(OC)c1C.Cl ?
> 49.3 µg/mL

What measured solubility kinetic goes with CCN(CC(=O)NCc1ccc(Cl)cc1)C(=O)c1sccc1C ?
> 52.6 µg/mL
